TEST: Cell Viability - Jurkat (AID 426);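 note: potency is the fitted concentration of half-maximal effect; cells exposed to compound for 40 hours at 37 °C before ATP read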
EXPERIMENTAL_PARAMETERS: qHTS
Results filed as inconclusive are left out. Active and inactive are the calls of the source.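 Rule for the calls: active = dose-dependent loss of cell ATP signal giving a full or clear fitted curve, ranked by lower potency value; inconclusive = weak partial curve or response only at the top dose; inactive = no loss of viability signal.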
The reply should be one of these categories: active, inactive

[ask] Entry FC(Cl)(Cl)Cl : call = ?
[reply] inactive

[ask] Entry Nn1cnnc1 : call = ?
[reply] inactive

[ask] Entry CCCCOC(=O)c1ccccc1N : call = ?
[reply] inactive

[ask] Entry N#CC(O)c1ccccc1 (configuration not stated) : call = ?
[reply] inactive

[ask] Entry CN(C)C(=O)Cl : call = ?
[reply] inactive

[ask] Entry OC[P+](CO)(CO)CO : call = ?
[reply] inactive

[ask] Entry O=[N+]([O-])CCO : call = ?
[reply] inactive

[ask] Entry CC(C)C#N : call = ?
[reply] inactive

[ask] Entry [C-]1=CC=CC1.[C-]1=CC=CC1.[Cl-].[Cl-].[Ti+4] : call = ?
[reply] active

[ask] Entry Nc1cccc2ccccc12 : call = ?
[reply] active

[ask] Entry ClC(Cl)Br : call = ?
[reply] inactive

[ask] Entry CC(C#N)CCC#N (configuration not stated) : call = ?
[reply] inactive

[ask] Entry C/C=C/C=O : call = ?
[reply] inactive

[ask] Entry N#CCCCCC#N : call = ?
[reply] inactive

[ask] Entry C/C=C/CC#N : call = ?
[reply] inactive

[ask] Entry COC(=O)Nc1nc2ccccc2[nH]1 : call = ?
[reply] active

[ask] Entry ClCCBr : call = ?
[reply] inactive

[ask] Entry CCBr : call = ?
[reply] inactive

[ask] Entry ClCCCCl : call = ?
[reply] inactive

[ask] Entry ClCC(Cl)CCl : call = ?
[reply] inactive

[ask] Entry ClCc1ccccn1 : call = ?
[reply] inactive

[ask] Entry ClCc1ccccc1 : call = ?
[reply] inactive

[ask] Entry CCOP(=S)(OCC)SCCSCC : call = ?
[reply] inactive

[ask] Entry Brc1cccc(-c2ccccc2)c1 : call = ?
[reply] inactive

[ask] Entry O=C(Cl)c1ccccc1F : call = ?
[reply] inactive

[ask] Entry C=C(C)CCl : call = ?
[reply] inactive

[ask] Entry CN(C)N=O : call = ?
[reply] inactive

[ask] Entry c1ccc(NNc2ccccc2)cc1 : call = ?
[reply] inactive

[ask] Entry Oc1cccc(Cl)c1 : call = ?
[reply] inactive

[ask] Entry CCN(CC)N=O : call = ?
[reply] inactive

[ask] Entry COc1cc(-c2ccc(N)c(OC)c2)ccc1N : call = ?
[reply] inactive

[ask] Entry OCCCCO : call = ?
[reply] inactive

[ask] Entry O=[N+]([O-])c1ccccc1-c1ccccc1 : call = ?
[reply] inactive

[ask] Entry c1ccoc1 : call = ?
[reply] inactive

[ask] Entry O=c1ccc(=O)[nH][nH]1 : call = ?
[reply] inactive

[ask] Entry C=CCCl : call = ?
[reply] inactive

[ask] Entry C=C(Cl)CSC(=S)N(CC)CC : call = ?
[reply] inactive

[ask] Entry Cl/C=C\Cl : call = ?
[reply] inactive

[ask] Entry c1ccc(Nc2ccc(Nc3ccccc3)cc2)cc1 : call = ?
[reply] inactive

[ask] Entry Clc1cccc(Cl)c1Cl : call = ?
[reply] inactive

[ask] Entry c1ccc(OCC2CO2)cc1 (configuration not stated) : call = ?
[reply] inactive

[ask] Entry C=CC(=O)OCCN(C)C : call = ?
[reply] inactive

[ask] Entry C=CCc1cc(OC)c2c(c1)OCO2 : call = ?
[reply] inactive

[ask] Entry O=[N+]([O-])/C=C/c1ccccc1 : call = ?
[reply] active

[ask] Entry Nc1ccc2ccccc2c1 : call = ?
[reply] inactive

[ask] Entry Cc1cc(Cl)ccc1O : call = ?
[reply] inactive

[ask] Entry Nc1ccc(Oc2ccc(N)cc2)cc1 : call = ?
[reply] inactive

[ask] Entry Nc1ncc([N+](=O)[O-])s1 : call = ?
[reply] inactive

[ask] Entry Oc1cc(Cl)cc(Cl)c1 : call = ?
[reply] inactive

[ask] Entry CN=C=O : call = ?
[reply] inactive

[ask] Entry CC(=O)[O-].CC(=O)[O-].CC(=O)[O-].[Cr+3] : call = ?
[reply] inactive

[ask] Entry Nc1ccccc1-c1ccccc1 : call = ?
[reply] inactive

[ask] Entry BrCCc1ccccc1 : call = ?
[reply] inactive

[ask] Entry Cc1cccc(C)c1N : call = ?
[reply] inactive

[ask] Entry CN(C)c1ccccc1 : call = ?
[reply] inactive

[ask] Entry CCCCOCC1CO1 (configuration not stated) : call = ?
[reply] inactive

[ask] Entry [O-][Cl+]O : call = ?
[reply] inactive

[ask] Entry Cl/C=C/CCl : call = ?
[reply] inactive

[ask] Entry Cc1cc(-c2ccc(N)c(C)c2)ccc1N : call = ?
[reply] inactive

[ask] Entry CN(C)C(=O)Nc1ccc(Cl)cc1 : call = ?
[reply] inactive

[ask] Entry c1ccc(N=NNc2ccccc2)cc1 : call = ?
[reply] inactive

[ask] Entry N#CCBr : call = ?
[reply] inactive

[ask] Entry Nc1cc(Cl)cc(C(=O)O)c1Cl : call = ?
[reply] inactive

[ask] Entry CC(Cl)CCl (configuration not stated) : call = ?
[reply] inactive

[ask] Entry CCCCOC(C)=O : call = ?
[reply] inactive

[ask] Entry Nc1ccc([N+](=O)[O-])cc1[N+](=O)[O-] : call = ?
[reply] inactive

[ask] Entry C=C(Cl)CCl : call = ?
[reply] inactive
